- Tested on: RS4-11
- protocol_text: Antiproliferative activity against human RS4-11 cells assessed as cell growth inhibition incubated for 72 hrs by resazurin dye based analysis
- Assay type: functional
property_name: GI50 (µM)
The figure you give is taken to be in µM; do not add the unit.

Completed entries (count: 5):
CCOC(=O)C(C)N1C(=O)S/C(=C\c2ccc(O)c(Cl)c2)C1=O (racemic) = 38.1
CCOC(=O)CN1C(=O)S/C(=C\c2cccc(O)c2)C1=O = 55
CCOC(=O)CN1C(=O)SC(Cc2ccc(O)c(O)c2)C1=O (stereo not given) = 27.6
CCOC(=O)C(C)N1C(=O)S/C(=C\c2ccc(Cl)c(O)c2)C1=O (racemic) = 60.6
CCOC(=O)C(C)N1C(=O)S/C(=C\c2ccc(O)c(O)c2)C1=O (racemic) = 5.1

Which GI50 is listed for CS(=O)(=O)Nc1ccc(/C=C2\SC(=O)N(CC(=O)N3CCOCC3)C2=O)cc1 ?
12.4

----------
- target_desc: BAG family molecular chaperone regulator 3 (Homo sapiens)
- Sequence (O95817 whole entry): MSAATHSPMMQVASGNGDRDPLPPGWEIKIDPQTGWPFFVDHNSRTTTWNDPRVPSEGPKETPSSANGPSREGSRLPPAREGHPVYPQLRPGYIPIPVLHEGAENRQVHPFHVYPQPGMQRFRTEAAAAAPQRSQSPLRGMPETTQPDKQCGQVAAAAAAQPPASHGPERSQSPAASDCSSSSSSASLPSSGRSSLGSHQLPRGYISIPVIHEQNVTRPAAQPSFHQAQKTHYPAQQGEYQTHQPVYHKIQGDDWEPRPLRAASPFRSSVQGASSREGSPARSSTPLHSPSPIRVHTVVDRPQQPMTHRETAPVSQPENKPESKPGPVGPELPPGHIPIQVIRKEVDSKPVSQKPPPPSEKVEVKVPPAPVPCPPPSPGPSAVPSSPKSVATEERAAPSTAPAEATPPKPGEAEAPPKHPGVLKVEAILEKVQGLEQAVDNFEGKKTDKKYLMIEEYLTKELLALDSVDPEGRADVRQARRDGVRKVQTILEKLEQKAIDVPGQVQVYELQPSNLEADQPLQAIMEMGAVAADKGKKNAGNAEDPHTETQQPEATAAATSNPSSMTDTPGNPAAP
- protocol_text: Binding affinity to CM4 sensorchip immobilized C-terminal His tagged human BAG3 transfected in HEK293T cells assessed as binding capacity at 50 uM by SPR analysis
# Activity annotations

Completed entries (count: 3):
CC(C(=O)N1CCOCC1)N1C(=O)S/C(=C\c2ccc(N3CCOCC3)cc2)C1=O (racemic) = < 5 RU
CCOC(=O)C(C)N1C(=O)S/C(=C\c2ccc3[nH]cnc3c2)C1=O (racemic) = > 5 RU
CC(C(=O)N1CCOCC1)N1C(=O)S/C(=C\c2cccc(O)c2O)C1=O (racemic) = > 5 RU

Which Activity is listed for CC(C(=O)N1CCCCC1)N1C(=O)S/C(=C\c2ccc(O)c(O)c2)C1=O (racemic) ?
> 5 RU

Which Activity is listed for O=C1OCCC1N1C(=O)S/C(=C\c2ccc(O)c(O)c2)C1=O (configuration not stated) ?
< 5 RU

----------
- Tested on: RS4-11
- protocol_text: Antiproliferative activity against human RS4-11 cells assessed as cell growth inhibition incubated for 72 hrs by resazurin dye based analysis
- Type: functional
// classify: if (GI50 < 10 µM) fulfilled else not fulfilled

Worked examples, 4 compounds total:
CCOC(=O)C(CC)N1C(=O)S/C(=C\c2ccc(O)c(O)c2)C1=O (racemic) = fulfilled
CCOC(=O)C(C)N1C(=O)N/C(=C\c2ccc(O)c(O)c2)C1=O (racemic) = not fulfilled
O=C(CN1C(=O)S/C(=C\c2ccc(O)c(O)c2)C1=O)N1CCOCC1 = not fulfilled
CCOCCN1C(=O)S/C(=C\c2ccc(O)c(O)c2)C1=O = fulfilled

Does CCOC(=O)CN1C(=O)S/C(=C\c2ccc(OC)c(OC)c2)C1=O have GI50 strictly under 10 µM?
not fulfilled

Does CCOC(=O)C(C)N1C(=O)S/C(=C\c2ccc3[nH]ncc3c2)C1=O (racemic) have GI50 strictly under 10 µM?
not fulfilled

Does O=C1OCCC1N1C(=O)S/C(=C\c2ccc(O)c(O)c2)C1=O (stereo unspecified) have GI50 strictly under 10 µM?
not fulfilled

Does CCOC(=O)CN1C(=O)S/C(=C\c2ccc(F)cc2)C1=O have GI50 strictly under 10 µM?
not fulfilled

----------
- protocol_text: Cytotoxicity against PHA stimulated human PBMC cells assessed as cell growth inhibition incubated for 72 hrs by MTT assay
- Assay type: toxicity, cell-based
# GI50 at 72 h annotations

CC(C(=O)N1CCOCC1)N1C(=O)S/C(=C\c2cccc(O)c2O)C1=O (racemic) = > 100 µM

Which GI50 at 72 h is listed for CCOC(=O)CN1C(=O)S/C(=C\c2ccc(O)c(O)c2)C1=O ?
> 100 µM

Entry source: ChEMBL document CHEMBL5335790
